# testTarget: human OX1 receptor (Homo sapiens)
# Sequence (O43613 1-425): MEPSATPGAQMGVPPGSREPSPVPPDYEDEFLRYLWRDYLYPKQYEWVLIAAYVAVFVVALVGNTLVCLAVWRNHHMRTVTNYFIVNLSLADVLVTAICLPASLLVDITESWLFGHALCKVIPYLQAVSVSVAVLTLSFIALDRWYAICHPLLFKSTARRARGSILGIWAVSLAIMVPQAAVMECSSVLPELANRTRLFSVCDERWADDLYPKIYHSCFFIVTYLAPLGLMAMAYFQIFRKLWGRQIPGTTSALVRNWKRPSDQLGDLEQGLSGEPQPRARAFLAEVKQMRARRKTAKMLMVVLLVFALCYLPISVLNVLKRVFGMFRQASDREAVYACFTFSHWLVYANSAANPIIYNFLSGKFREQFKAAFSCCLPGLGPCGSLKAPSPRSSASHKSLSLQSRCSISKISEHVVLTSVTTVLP
# assayRemarks: IPone accumulation assay, CHO cells expressing OX1 (antagonism of orexin A)
# Assay type: cell-based
# testSettings: IPone accumulation, CHO human OX1, orexin A EC80 challenge (~20 nM); read-out: fpKb average OX1 (converted)
Entry flag: 1 (yes) if Kb reaches 30 nM; 0 (no) if it does not.

# compound, assignedLabel
records = [
    ("COc1cc(F)c(CN2C(=O)N(c3cnc(OC)c(S(C)(=O)=O)c3)CCc3c(F)cccc32)c(F)c1F", "1 (yes)"),
    ("COc1ncc(C2CCc3c(F)cccc3N(Cc3cc(C#N)ccc3F)C2=O)cc1C(C)(F)F (single isomer, unassigned)", "1 (yes)"),
    ("COc1ncc(N2CCc3c(F)cccc3N(Cc3c(F)cc(Cl)cc3F)C2=O)cc1C(C)(F)F", "0 (no)"),
    ("COc1cc(F)c(CN2C(=O)N(c3cnc(OC)c(C(C)(F)F)c3)CCc3c(F)cccc32)c(F)c1", "0 (no)"),
    ("Cc1ncc(C2CCc3c(F)cccc3N(Cc3c(F)cc(Br)cc3F)C2=O)cc1S(C)(=O)=O (single isomer, unassigned) [Example 38]", "0 (no)"),
    ("Cc1ncc(C2CCc3c(F)cccc3N(Cc3c(F)cc(Br)cc3F)C2=O)cc1S(C)(=O)=O (single isomer, unassigned) [Example 39]", "1 (yes)"),
    ("COc1ncc(C2CCc3c(F)cccc3N(Cc3c(F)cc(Cl)cc3F)C2=O)cc1S(C)(=O)=O (single isomer, unassigned)", "0 (no)"),
]

---

# testTarget: human OX1 receptor (Homo sapiens, UniProt O43613)
# assayRemarks: [3H]-radioligand binding assay, OX1
# Parameters: made in house; host or cells: SF21 insect cells (baculovirus; P0 virus made in SF9)
# testSettings: [3H]-radioligand binding, human OX1 membranes; read-out: pKi average OX1 (converted)
# label = Condition met if Ki < 1 nM else Condition not met

# compound, assignedLabel
data = [
    ("COc1ccc(CN2C(=O)N(c3cnc(OC)c(C(C)(F)F)c3)CCc3c(F)cccc32)c(F)c1", "Condition met"),
    ("Cc1ncc(C2CCc3c(F)cccc3N(Cc3c(F)cc(Br)cc3F)C2=O)cc1C(C)(F)F (single isomer, unassigned) [Example 35]", "Condition not met"),
    ("Cc1cc(C)c(S(C)(=O)=O)cc1N1CCc2ccccc2N(Cc2c(F)cc(OC(C)C)cc2F)C1=O", "Condition not met"),
    ("COc1cc(F)c(CN2C(=O)N(c3cnc(OC)c(S(C)(=O)=O)c3)CCc3c(F)cccc32)c(F)c1", "Condition met"),
    ("COc1cc(F)c(CN2C(=O)N(c3cc(S(C)(=O)=O)c(OC)nc3OC)CCc3c(F)cccc32)c(F)c1", "Condition not met"),
    ("COc1cc(F)c(CN2C(=O)N(c3cnc(OC)c(C(C)(F)F)c3)CCc3c(F)cccc32)c(F)c1", "Condition met"),
    ("Cc1ncc(N2CCc3c(F)cccc3N(Cc3c(F)cc(Br)cc3F)C2=O)cc1OC(F)F", "Condition not met"),
]

---

# testTarget: human OX2 receptor (Homo sapiens, UniProt O43614)
# Sequence (O43614 whole entry): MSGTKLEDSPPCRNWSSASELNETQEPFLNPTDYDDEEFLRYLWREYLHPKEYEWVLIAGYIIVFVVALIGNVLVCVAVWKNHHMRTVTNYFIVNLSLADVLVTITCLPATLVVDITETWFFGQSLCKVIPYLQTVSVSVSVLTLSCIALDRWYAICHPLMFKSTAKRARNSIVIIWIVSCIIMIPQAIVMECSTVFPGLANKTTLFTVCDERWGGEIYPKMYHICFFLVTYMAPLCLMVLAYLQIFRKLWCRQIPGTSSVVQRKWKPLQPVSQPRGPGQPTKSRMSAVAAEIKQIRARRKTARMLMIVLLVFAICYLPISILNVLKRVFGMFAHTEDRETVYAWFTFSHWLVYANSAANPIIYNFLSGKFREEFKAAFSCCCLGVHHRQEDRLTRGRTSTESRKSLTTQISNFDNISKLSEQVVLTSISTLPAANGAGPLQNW
# assayRemarks: [3H]-radioligand binding assay, OX2
# Parameters: made in house; host or cells: SF21 insect cells (baculovirus; P0 virus made in SF9)
# testSettings: [3H]-radioligand binding, human OX2 membranes; read-out: pKi average OX2 (converted)

# molecule, Ki
measured = [
    ("Cc1cc(C)c(S(C)(=O)=O)cc1N1CCc2ccccc2N(Cc2c(F)cc(Br)cc2F)C1=O", "100 nM"),
    ("COc1cc(F)c(CN2C(=O)N(c3cc(S(C)(=O)=O)c(OC)nc3OC)CCc3c(F)cccc32)c(F)c1", "> 126 nM"),
    ("Cc1ncc(C2CCc3c(F)cccc3N(Cc3c(F)cc(Br)cc3F)C2=O)cc1S(C)(=O)=O (single isomer, unassigned) [Example 39]", "> 501 nM"),
    ("CCCc1cc(F)c(CN2C(=O)N(c3cnc(C)c(C(C)(F)F)c3)CCc3c(F)cccc32)c(F)c1", "> 251 nM"),
]

---

# testTarget: human OX1 receptor (Homo sapiens, UniProt O43613)
# assayRemarks: [3H]-radioligand binding assay, OX1
# Set-up: made in house; host or cells: SF21 insect cells (baculovirus; P0 virus made in SF9)
# testSettings: [3H]-radioligand binding, human OX1 membranes; read-out: pKi average OX1 (converted)

# compound, Ki (nM)
records = [
    ("COc1ncc(N2CCc3c(F)cccc3N(Cc3c(F)cc(Br)cc3F)C2=O)cc1C(C)(F)F", 1.26),
    ("Cc1ccc(N2CCc3c(F)cccc3N(Cc3c(F)cc(Br)cc3F)C2=O)cc1C(C)(F)F", 2),
    ("COCc1cc(F)c(CN2C(=O)N(c3cnc(OC)c(C(C)(F)F)c3)CCc3c(F)cccc32)c(F)c1", 1),
    ("Cc1ncc(C2CCc3c(F)cccc3N(Cc3c(F)cc(Br)cc3F)C2=O)cc1S(C)(=O)=O (single isomer, unassigned) [Example 38]", 10),
    ("COc1cc(F)c(CN2C(=O)N(c3cnc(OC)c(S(C)(=O)=O)c3)CCc3c(F)cccc32)c(F)c1F", 1.26),
    ("CSc1cc(N2CCc3c(F)cccc3N(Cc3c(F)cc(Br)cc3F)C2=O)ccc1C", 1.26),
]
